meta.source: the RNAGym collection of RNA variant scans (doi:10.1126/science.aae0568)

Exercise: for every item that follows, state its recorded yeast fitness.
B1: tRNA (parent)
chain: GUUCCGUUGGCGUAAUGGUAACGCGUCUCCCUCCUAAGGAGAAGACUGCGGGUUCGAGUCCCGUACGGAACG

Variants of: B1
EXPERIMENTAL DETAILS: yeast fitness relative to wild type (ratio to wild type); higher = fitter; tRNA-Arg(CCU), competitive growth, 37 C, YPD
Fewer inactive variants are shown than the library holds.
Reply with the value as a number alone.

Quick one: give measured yeast fitness for GUUCCGUUGGCGUAAUGGUAACGCGUCUCCCUCCUAAGGAGAAGACUGCGGAUUCGAGUCCCGUCCGGAACG
0.848

Quick one: give measured yeast fitness for GUUCCGUUGGCGUAAUGGUAACGCGUCUCCCUCCUUAGGAGAAGACUGCGGGUUCGAGUCUCGUAUGGAACG
0.582

Quick one: give measured yeast fitness for GUUCCGUUGGCGUAAUGGUAACGCGUCUGCCUCUUAAGGAGAAGACUGCGGAUUCGAGUUCCGUACGGAACG
0.548

Quick one: give measured yeast fitness for GUUCCGUUGGCGUAAUGGUAAUGCGUCUCCCUCCUAAGGAGAAGACUGCGGGUUCGAGUUCCGUACGGAACG
0.723

Quick one: give measured yeast fitness for GUUCCGUUGGCGUAAUGGUAACGCGUCUCCGUCCUAAGGAGAAGACCGCGGGUUCGAGUCCCGUACGGAACG
0.952

Quick one: give measured yeast fitness for GUUCCGUUGGCGUAAUGGUAACGCGUCUCCCUACUAAGGAGAAGACUGCGGGUUCGGGUCCCGUACGGAACG
0.781

Quick one: give measured yeast fitness for GUUCCAUUGGUGUAAUGGUAACGCGUCUCCCUCCUAAGGAGAAGACUGCGGGUUUGAGUCCCGUACGGAACG
0.814

Quick one: give measured yeast fitness for GUUCCGUUGGCGAAAUGGUAACGCGUCUCCCUCCUAAGGAGAGGGCUGCCGGUUCGAGUACCGUACGGCACG
0.534

Quick one: give measured yeast fitness for GUUCCGUUGGCGUAAUGGUAACGCGUCUCCCUACUAGGGAGAAGACUGCGGGUUCGAGUCCCGUACGGAACG
0.531
